Biological target: plasminogen activator inhibitor-1 (PAI-1) (Homo sapiens, UniProt P05121)
Construct: recombinant human PAI-1
Sequence (P05121 24-402, other chains not shown): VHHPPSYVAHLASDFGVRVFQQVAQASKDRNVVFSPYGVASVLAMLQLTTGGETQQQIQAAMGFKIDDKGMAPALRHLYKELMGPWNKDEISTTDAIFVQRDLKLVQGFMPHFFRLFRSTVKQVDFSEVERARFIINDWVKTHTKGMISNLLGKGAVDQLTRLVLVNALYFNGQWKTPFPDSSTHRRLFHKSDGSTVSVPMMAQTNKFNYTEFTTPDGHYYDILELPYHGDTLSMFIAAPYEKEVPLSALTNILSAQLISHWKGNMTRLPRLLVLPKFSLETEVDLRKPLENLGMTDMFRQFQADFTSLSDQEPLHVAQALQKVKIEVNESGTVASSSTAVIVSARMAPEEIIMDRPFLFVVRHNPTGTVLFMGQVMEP
Test: chromogenic uPA/S-2444 assay with recombinant PAI-1; supported by SDS-PAGE of PAI-1/uPA complex and clot lysis assay
Property Measured: IC50 (µM)
Output spec: scalar in µM, unitless text.

## Input So what's the measured IC50 for this one? COc1cc2oc(=O)ccc2c(OC)c1C[C@@H](O)C(C)(C)O (single isomer, unassigned) [Peak 4, toddalolactone]
## Output 37.3
